Tested on: WM793B (Melanoma)
Test: Bliss excess, mean over the matrix (fraction); higher = more synergy
Parameter: Bliss excess. Scope: all listed entries.
Give the value as a plain number.

compound: CN(CCO)CC[C@H](CSc1ccccc1)Nc1ccc(S(=O)(=O)NC(=O)c2ccc(N3CCC([C@@H](O)c4ccccc4-c4ccc(Cl)cc4)CC3)cc2)cc1S(=O)(=O)C(F)(F)F [AZD4320] + CCN(CCO)CCCOc1ccc2c(Nc3cc(CC(=O)Nc4cccc(F)c4)[nH]n3)ncnc2c1 [AZD2811] (first compound max 1 µM, 7x7, partner max 1 µM)
readoutValue: 0.0038

Below: the item to evaluate.
**Query** Using the record for C=CCn1c(=O)c2cnc(Nc3ccc(N4CCN(C)CC4)cc3)nc2n1-c1cccc(C(C)(C)O)n1 [AZD1775] + C1CN(CCC1(C(=O)N[C@@H](CCO)C2=CC=C(C=C2)Cl)N)C3=NC=NC4=C3C=CN4 [Capivasertib] (first compound max 3 µM, partner max 3 µM) , state its measured Bliss excess.
**Result** -0.0157

----------
Test system: OVMIU (Ovarian Carcinoma)
Assay: combination Emax (second highest fraction inhibited in the dose matrix, 72 h); higher = more inhibition; extreme values may be limits of the assay
The threshold is inclusive: combination Emax of exactly 0.5 counts as 1 (yes); values below receive 0 (no).

**Query** // inclusive: combination Emax at least 0.5? input: CCc1c2c(nc3ccc(O)cc13)-c1cc3c(c(=O)n1C2)COC(=O)[C@]3(O)CC [SN-38] + O=C(c1cc(Cc2n[nH]c(=O)c3ccccc23)ccc1F)N1CCN(C(=O)C2CC2)CC1 [Olaparib] (first compound max 0.3 µM, 7x7, partner max 10 µM)
**Result** 0 (no)

**Query** // inclusive: combination Emax at least 0.5? input: NC1(C(=O)N[C@@H](CCO)c2ccc(Cl)cc2)CCN(c2ncnc3[nH]ccc23)CC1 [Capivasertib] + CC(C)n1c(=O)n(C)c2cnc3cc(F)c(-c4ccc(OCCCN5CCCCC5)nc4)cc3c21 [AZD1390] (first compound max 10 µM, 7x7, partner max 0.3 µM)
**Result** 0 (no)

----------
Test system: PSN1 (Pancreatic Carcinoma)
Assay: Bliss excess, mean over the matrix (fraction); higher = more synergy
Please use the following Bliss excess ranges when assigning a class: bin 1 (below -0.04), bin 2 (-0.04 to below 0.01), bin 3 (0.01 or more)

Check out these entries, answers already filled in.
compound: CC1(C)CCC(CN2CCN(c3ccc(C(=O)NS(=O)(=O)c4ccc(NCC5CCOCC5)c([N+](=O)[O-])c4)c(Oc4cnc5[nH]ccc5c4)c3)CC2)=C(c2ccc(Cl)cc2)C1 [Venetoclax] + CN(C)CCCOc1ccc(-c2ccc3ncc4c(c3c2)n(C2CCOCC2)c(=O)n4C)cn1 [AZD0156] (first compound max 1 µM, 7x7, partner max 1 µM)
class: bin 1
//
compound: Cc1c2c(nn1C)CSCc1cc(n(C)n1)CSc1cc(c3ccccc3c1)OCCCc1c(C(=O)O)n(C)c3c-2c(Cl)ccc13 [AZD5991] + CS(=O)(=O)CCNCc1ccc(-c2ccc3ncnc(Nc4ccc(OCc5cccc(F)c5)c(Cl)c4)c3c2)o1 [Lapatinib] (first compound max 1 µM, 7x7, partner max 10 µM)
class: bin 1
//
compound: NC1(C(=O)N[C@@H](CCO)c2ccc(Cl)cc2)CCN(c2ncnc3[nH]ccc23)CC1 [Capivasertib] + COc1nnc2ccc(N3CCC(c4ccc(OCCN5CCN(C)C(=O)[C@H]5C)cc4)CC3)nn12 [AZD5153] (first compound max 10 µM, 7x7, partner max 1 µM)
class: bin 1
//
compound: CC(=O)c1c(C)c2cnc(Nc3ccc(N4CCNCC4)cn3)nc2n(C2CCCC2)c1=O [Palbociclib] + CC1(C)CCC(CN2CCN(c3ccc(C(=O)NS(=O)(=O)c4ccc(NCC5CCOCC5)c([N+](=O)[O-])c4)c(Oc4cnc5[nH]ccc5c4)c3)CC2)=C(c2ccc(Cl)cc2)C1 [Venetoclax] (first compound max 10 µM, 7x7, partner max 1 µM)
class: bin 2
//
compound: NC1(C(=O)N[C@@H](CCO)c2ccc(Cl)cc2)CCN(c2ncnc3[nH]ccc23)CC1 [Capivasertib] + CC(C)n1c(=O)n(C)c2cnc3cc(F)c(-c4ccc(OCCCN5CCCCC5)nc4)cc3c21 [AZD1390] (first compound max 10 µM, 7x7, partner max 0.3 µM)
class: bin 1
//
compound: COc1cccc(OCCCN)c1-c1cc(Nc2cnc(C#N)cn2)n[nH]1 [Prexasertib] + CN(C)CCCOc1ccc(-c2ccc3ncc4c(c3c2)n(C2CCOCC2)c(=O)n4C)cn1 [AZD0156] (first compound max 1 µM, 7x7, partner max 1 µM)
class: bin 2

**Query** Categorize the following entry: COc1cccc(OCCCN)c1-c1cc(Nc2cnc(C#N)cn2)n[nH]1 [Prexasertib] + C=CCn1c(=O)c2cnc(Nc3ccc(N4CCN(C)CC4)cc3)nc2n1-c1cccc(C(C)(C)O)n1 [AZD1775] (first compound max 1 µM, partner max 1 µM)
**Result** bin 3

**Query** Categorize the following entry: COc1nnc2ccc(N3CCC(c4ccc(OCCN5CCN(C)C(=O)[C@H]5C)cc4)CC3)nn12 [AZD5153] + C[C@@H]1COCCN1C2=NC(=NC(=C2)C3(CC3)[S@](=N)(=O)C)C4=C5C=CNC5=NC=C4 [AZD6738] (first compound max 1 µM, 7x7, partner max 10 µM)
**Result** bin 3

**Query** Categorize the following entry: COc1cccc(OCCCN)c1-c1cc(Nc2cnc(C#N)cn2)n[nH]1 [Prexasertib] + CCc1c2c(nc3ccc(O)cc13)-c1cc3c(c(=O)n1C2)COC(=O)[C@]3(O)CC [SN-38] (first compound max 1 µM, 7x7, partner max 0.3 µM)
**Result** bin 3

**Query** Categorize the following entry: CN(C)CCCOc1ccc(-c2ccc3ncc4c(c3c2)n(C2CCOCC2)c(=O)n4C)cn1 [AZD0156] + O=C(c1cc(Cc2n[nH]c(=O)c3ccccc23)ccc1F)N1CCN(C(=O)C2CC2)CC1 [Olaparib] (first compound max 3 µM, partner max 3 µM)
**Result** bin 3

**Query** Categorize the following entry: Cn1cnc2c(F)c(Nc3ccc(Br)cc3Cl)c(C(=O)NOCCO)cc21 [Selumetinib] + CCN(CCO)CCCOc1ccc2c(Nc3cc(CC(=O)Nc4cccc(F)c4)[nH]n3)ncnc2c1 [AZD2811] (first compound max 10 µM, 7x7, partner max 1 µM)
**Result** bin 1

**Query** Categorize the following entry: C[C@@H]1COCCN1c1cc(C2([S@](C)(=N)=O)CC2)nc(-c2ccnc3[nH]ccc23)n1 [AZD6738] + Nc1ccn([C@@H]2O[C@H](CO)[C@@H](O)C2(F)F)c(=O)n1 [Gemcitabine] (first compound max 10 µM, 7x7, partner max 0.3 µM)
**Result** bin 3

**Query** Categorize the following entry: CC1(C)CCC(CN2CCN(c3ccc(C(=O)NS(=O)(=O)c4ccc(NCC5CCOCC5)c([N+](=O)[O-])c4)c(Oc4cnc5[nH]ccc5c4)c3)CC2)=C(c2ccc(Cl)cc2)C1 [Venetoclax] + CCN(CCO)CCCOc1ccc2c(Nc3cc(CC(=O)Nc4cccc(F)c4)[nH]n3)ncnc2c1 [AZD2811] (first compound max 1 µM, 7x7, partner max 1 µM)
**Result** bin 1

----------
Tested on: GP5d (Colorectal Carcinoma)
Assay: combination Emax (second highest fraction inhibited in the dose matrix, 72 h); higher = more inhibition; extreme values may be limits of the assay
metric: combination Emax
Give the value as a plain number.

Below are worked cases with known answers.
compound: NC1(C(=O)N[C@@H](CCO)c2ccc(Cl)cc2)CCN(c2ncnc3[nH]ccc23)CC1 [Capivasertib] + CC(=O)c1c(C)c2cnc(Nc3ccc(N4CCNCC4)cn3)nc2n(C2CCCC2)c1=O [Palbociclib] (first compound max 10 µM, 7x7, partner max 10 µM)
combination Emax: 0.648

compound: CN(CCO)CC[C@H](CSc1ccccc1)Nc1ccc(S(=O)(=O)NC(=O)c2ccc(N3CCC([C@@H](O)c4ccccc4-c4ccc(Cl)cc4)CC3)cc2)cc1S(=O)(=O)C(F)(F)F [AZD4320] + Cn1cnc2c(F)c(Nc3ccc(Br)cc3Cl)c(C(=O)NOCCO)cc21 [Selumetinib] (first compound max 1 µM, 7x7, partner max 3 µM)
combination Emax: 0.9

**Query** # lookup: GP5d (Colorectal Carcinoma) combination Emax, key = CC1(C)CCC(CN2CCN(c3ccc(C(=O)NS(=O)(=O)c4ccc(NCC5CCOCC5)c([N+](=O)[O-])c4)c(Oc4cnc5[nH]ccc5c4)c3)CC2)=C(c2ccc(Cl)cc2)C1 [Venetoclax] + COc1cc(Nc2ncc3c(n2)-c2ccc(Cl)cc2C(c2c(F)cccc2OC)=NC3)ccc1C(=O)O [Alisertib] (first compound max 1 µM, 7x7, partner max 10 µM)
**Result** 0.498

----------
Parameter: Bliss excess. Scope: all listed entries.
Test system: COLO-680N (Esophageal Squamous Cell Carcinoma)
Experiment: Bliss excess, mean over the matrix (fraction); higher = more synergy

compound: C[C@@H]1COCCN1c1cc(C2([S@](C)(=N)=O)CC2)nc(-c2ccnc3[nH]ccc23)n1 [AZD6738] + O=C(c1cc(Cc2n[nH]c(=O)c3ccccc23)ccc1F)N1CCN(C(=O)C2CC2)CC1 [Olaparib] (first compound max 10 µM, 7x7, partner max 10 µM)
targetUnderTest: COLO-680N (Esophageal Squamous Cell Carcinoma)
metric: Bliss excess
readoutValue: 0.0109

compound: CC1(C)CCC(CN2CCN(c3ccc(C(=O)NS(=O)(=O)c4ccc(NCC5CCOCC5)c([N+](=O)[O-])c4)c(Oc4cnc5[nH]ccc5c4)c3)CC2)=C(c2ccc(Cl)cc2)C1 [Venetoclax] + COc1cc(Nc2ncc3c(n2)-c2ccc(Cl)cc2C(c2c(F)cccc2OC)=NC3)ccc1C(=O)O [Alisertib] (first compound max 1 µM, 7x7, partner max 10 µM)
targetUnderTest: COLO-680N (Esophageal Squamous Cell Carcinoma)
metric: Bliss excess
readoutValue: -0.0427

compound: CN(CCO)CC[C@H](CSc1ccccc1)Nc1ccc(S(=O)(=O)NC(=O)c2ccc(N3CCC([C@@H](O)c4ccccc4-c4ccc(Cl)cc4)CC3)cc2)cc1S(=O)(=O)C(F)(F)F [AZD4320] + CN(C)CCCOc1ccc(-c2ccc3ncc4c(c3c2)n(C2CCOCC2)c(=O)n4C)cn1 [AZD0156] (first compound max 1 µM, 7x7, partner max 1 µM)
targetUnderTest: COLO-680N (Esophageal Squamous Cell Carcinoma)
metric: Bliss excess
readoutValue: -0.028

compound: CN(C)CCCOc1ccc(-c2ccc3ncc4c(c3c2)n(C2CCOCC2)c(=O)n4C)cn1 [AZD0156] + CCN(CCO)CCCOc1ccc2c(Nc3cc(CC(=O)Nc4cccc(F)c4)[nH]n3)ncnc2c1 [AZD2811] (first compound max 1 µM, 7x7, partner max 1 µM)
targetUnderTest: COLO-680N (Esophageal Squamous Cell Carcinoma)
metric: Bliss excess
readoutValue: -0.0404

compound: C[C@@H](c1ccc2nccn2c1)n1nnc2ncc(-c3cnn(C)c3)nc21 [Savolitinib] + Cc1c2c(nn1C)CSCc1cc(n(C)n1)CSc1cc(c3ccccc3c1)OCCCc1c(C(=O)O)n(C)c3c-2c(Cl)ccc13 [AZD5991] (first compound max 1 µM, 7x7, partner max 1 µM)
targetUnderTest: COLO-680N (Esophageal Squamous Cell Carcinoma)
metric: Bliss excess
readoutValue: -0.0291

**Query** Using the record for C=CCn1c(=O)c2cnc(Nc3ccc(N4CCN(C)CC4)cc3)nc2n1-c1cccc(C(C)(C)O)n1 [AZD1775] + Nc1ccn([C@@H]2O[C@H](CO)[C@@H](O)C2(F)F)c(=O)n1 [Gemcitabine] (first compound max 1 µM, partner max 0.3 µM) , state its measured Bliss excess.
**Result** 0.0195

**Query** Using the record for COc1cccc(OCCCN)c1-c1cc(Nc2cnc(C#N)cn2)n[nH]1 [Prexasertib] + CN(C)CCCOc1ccc(-c2ccc3ncc4c(c3c2)n(C2CCOCC2)c(=O)n4C)cn1 [AZD0156] (first compound max 1 µM, 7x7, partner max 1 µM) , state its measured Bliss excess.
**Result** -0.0393
